Tested on: Sclerotinia sclerotiorum
assay.notes: Fungicidal activity against Sclerotinia sclerotiorum, mycelial growth inhibition on PDA plate
Format: cell-based
measurement.setup: Sclerotinia sclerotiorum, 2.5 mg/L, Table 4; read-out: activities against Sclerotinia sclerotiorum (growth inhibition)
For each of the compounds below, state its inhibition at 2.5 µg/mL.
Numbers only, in %.

compound | uom | inhibition at 2.5 µg/mL
CCN(Cc1cnc(Br)s1)c1nc(OC)ccc1[N+](=O)[O-] [Compound 33] | % | 91

Lab note: each compound below needs its inhibition at 2.5 µg/mL filled in.
1. CCN(Cc1cnc(Cl)s1)c1nc(OC)ccc1[N+](=O)[O-] [Compound 05]
2. CCN(Cc1cnc(Cl)s1)c1nc(N(C)C)ccc1[N+](=O)[O-] [Compound 28]
3. C#CCOc1ccc([N+](=O)[O-])c(N(CC)Cc2cnc(Cl)s2)n1 [Compound 25]
4. CCOc1ccc([N+](=O)[O-])c(N(CC)Cc2cnc(Cl)s2)n1 [Compound 04]

1. 99
2. 64
3. 84
4. 75

The reported numbers originate from patent US9386769B2.
